# Tested on: P. falciparum HB3 in RBCs, SYBR Green DNA fluorescence
# experimentDescription: growth inhibition of P. falciparum HB3, dose response, HB3 strain, red blood cells, SYBR Green, cherry-picked (AID 652041);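 note: parasites exposed to compound for 72 hours before the DNA read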
AC35 listing for selected molecules.

C=CCOC(Cn1ccnc1)c1ccc(Cl)cc1Cl (configuration not stated)	7.38 µM
O/N=C/c1ccccc1OCc1ccc(Cl)cc1	34.4 µM
Cc1ccc(C(=O)C(SC(C)(C)C)n2cncn2)cc1 (configuration not stated)	38.7 µM
Cc1ccc(S(=O)(=O)Nc2ccc(O)c3cccnc23)cc1	6.27 µM
CCCCCCCc1ccc(-c2ccc(O)cc2)nc1	4.88 µM

### Prompt Could you share which AC35 value was measured for CC1=CC(=O)C=C(C)C1=NOS(=O)(=O)c1ccccc1 ?
### Response 5.53 µM

### Prompt What do you have for Cc1ccc(Nc2cc(C)nn2-c2nc(C)cc(C)n2)cc1 ?
### Response 2.75 µM

----------
# Test system: P. falciparum HB3 in RBCs, SYBR Green DNA fluorescence
# experimentDescription: growth inhibition of P. falciparum HB3, dose response, HB3 strain, red blood cells, SYBR Green, cherry-picked (AID 652041);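 note: parasites exposed to compound for 72 hours before the DNA read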
measurementKind: AC35

COc1cccc(/C=N/Nc2ncnc(Cl)c2N)c1O	0.942 µM

### Prompt Recorded AC35 of CC(=O)Oc1ccc(OC(C)=O)c(SCCCCCCl)c1 , please.
### Response 2.56 µM

### Prompt Thanks! And O=[N+]([O-])c1ccc(Sc2cccc[n+]2[O-])c2nonc12 ?
### Response 1.41 µM

### Prompt Next record, please: O=c1c(O)c(-c2ccccc2)oc2ccccc12
### Response 21.6 µM

### Prompt # iterate: O=C(Nc1nnc(-c2ccccc2)o1)c1ccc(Cl)cc1
### Response 10.7 µM

### Prompt Lookup O=C(CCCSc1ccccc1)Nc1nc(-c2ccccn2)cs1
### Response 8.91 µM

### Prompt Here is the next compound: O=C(Nc1ccc(Cl)cc1C(=O)Nc1ccc(Br)cn1)c1ccco1
### Response 16.5 µM

### Prompt Now give it for O=C(Nc1nnc(SCc2ccc(F)cc2)s1)c1ccccn1 too.
### Response 1.93 µM

----------
# Test system: P. falciparum HB3 in RBCs, SYBR Green DNA fluorescence
# experimentDescription: growth inhibition of P. falciparum HB3, dose response, HB3 strain, red blood cells, SYBR Green, cherry-picked (AID 652041);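 note: parasites exposed to compound for 72 hours before the DNA read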
AC35 values by entry

O=C(Nc1cc(Oc2ccc(Cl)cc2)cc([N+](=O)[O-])c1)c1ccco1	2.14 µM

### Prompt Can you look up AC35 on P. falciparum HB3 in RBCs, SYBR Green DNA fluorescence for Cc1ccc(Sc2ccc(NC(=O)CCl)cc2)cc1C ?
### Response 0.321 µM

### Prompt Now consider COc1ccc(C(=O)On2c(-c3ccc(Br)cc3)nc3ccccc3c2=O)cc1 .
### Response 9.45 µM

### Prompt Further, for CC1(C(=O)OCC(=O)Nc2ccc3ccccc3c2)CC1(Cl)Cl (configuration not stated) ?
### Response 31.2 µM

### Prompt Would you mind doing CCOC(=O)c1cnc(-n2nc(C)cc2C)nc1NC1CCCC1 as well?
### Response 4.23 µM

### Prompt Ok, now O=C(NCc1ccncc1)c1ccccc1Nc1ccc(SC(F)F)cc1
### Response 21.5 µM

----------
# Tested on: P. falciparum HB3 in RBCs, SYBR Green DNA fluorescence
# experimentDescription: growth inhibition of P. falciparum HB3, dose response, HB3 strain, red blood cells, SYBR Green, cherry-picked (AID 652041);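 note: parasites exposed to compound for 72 hours before the DNA read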
measurementKind: AC35

COc1ccc(-c2cc(C(=O)N3CCN(c4ccccc4F)CC3)c3ccccc3n2)c(OC)c1	6.74 µM
Oc1cccc2ccc(Nc3ccccn3)nc12	0.321 µM
O=C(CN1CC[n+]2c(-c3cccs3)csc21)c1ccc(-c2ccccc2)cc1	1.46 µM
CCC(C)n1ncn(-c2ccc(N3CCN(c4ccc(OCC5COC(Cn6cncn6)(c6ccc(Cl)cc6Cl)O5)cc4)CC3)cc2)c1=O (stereo not drawn)	3.81 µM
Cc1nn(CCC#N)c(N)c1C1(O)C(=O)Nc2c(Cl)cc(Cl)cc21 (stereo not drawn)	7.41 µM

### Prompt GET /values?readout=AC35&item= O=C(OCC(=O)C12CC3CC(CC(C3)C1)C2)c1ccc(O)cc1
### Response 23.4 µM

### Prompt Entry CNc1cc(CSC)nc(SCc2ccc(Cl)cc2Cl)n1 please
### Response 22.3 µM

### Prompt # iterate: Cc1cc(Cl)ccc1C(=O)C1CCCN(C(=O)c2cncs2)C1 (stereo not drawn)
### Response 33.5 µM

### Prompt Same question, Cc1c(C(=O)O)cccc1-c1ccc(/C=N/Nc2ccc(Br)cc2)o1 this time
### Response 21.3 µM

### Prompt Next entry: COc1cnc(-c2ccccn2)nc1Oc1ccc(C(C)(C)C)cc1
### Response 4.82 µM

### Prompt And O=C(Nc1ccc(Br)c(C(F)(F)F)c1)c1ccccc1 ?
### Response 10.7 µM

### Prompt What do you have for [O-][n+]1cccc2c(Br)cc(Br)c(O)c21 ?
### Response 2.77 µM

### Prompt Request: COc1cccc(CC(=O)Nc2ccc3nc(C)sc3c2)c1
### Response 43.9 µM

----------
# Test system: P. falciparum HB3 in RBCs, SYBR Green DNA fluorescence
# experimentDescription: growth inhibition of P. falciparum HB3, dose response, HB3 strain, red blood cells, SYBR Green, cherry-picked (AID 652041);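 note: parasites exposed to compound for 72 hours before the DNA read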
measurementKind: AC35

Example entries and their recorded answers appear below.
O=C(CSc1ccc(-c2ccccn2)nn1)NCc1ccc(F)cc1	37.5 µM
CN(C)c1ccc(C=c2c3cc(O)ccc3n3c2cc(-c2ccccc2)[n+]3C)cc1	0.247 µM
CCn1c2ccc(C)cc2c2nc3cc(C(=O)O)ccc3nc21	37.1 µM

### Prompt Suppose we examine the molecule CCCn1nc(C(=O)N2CCN(S(=O)(=O)c3ccc(C)c(C)c3)CC2)c2ccccc2c1=O ; what AC35 value has been reported?
### Response 8.13 µM

### Prompt Next molecule up: COc1cc2cnc(-c3ccccc3)c(C(=O)c3ccc(F)cc3)c2cc1OC
### Response 21.6 µM

----------
# System: P. falciparum HB3 in RBCs, SYBR Green DNA fluorescence
# experimentDescription: growth inhibition of P. falciparum HB3, dose response, HB3 strain, red blood cells, SYBR Green, cherry-picked (AID 652041);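 note: parasites exposed to compound for 72 hours before the DNA read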
measurementKind: AC35

c1ccc(CSc2ccc(-c3ccccn3)nn2)nc1	23 µM
O=C(Nc1nnc(-c2cccs2)o1)c1cccc(Oc2ccccc2)c1	19.4 µM

### Prompt I have this compound here, Cc1ccc(-c2c3c(nc4sc(C(N)=O)c(N)c24)CCCC3)o1 , and I need its recorded AC35.
### Response 37.6 µM

----------
In this section we review reported AC35 values for a set of compounds.
# System: P. falciparum HB3 in RBCs, SYBR Green DNA fluorescence
# experimentDescription: growth inhibition of P. falciparum HB3, dose response, HB3 strain, red blood cells, SYBR Green, cherry-picked (AID 652041);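 note: parasites exposed to compound for 72 hours before the DNA read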

CCCCOC(=O)/C=C/c1ccc(OC(=O)OC)c(OC(=O)OC)c1	11 µM
CCc1ccc(CN(C)C(=O)c2cc(COc3cccc(C(F)(F)F)c3)on2)nc1	29.1 µM
O=c1cc(CSc2ccc(Cl)cc2)nc(-c2ccccn2)[nH]1	2.3 µM

### Prompt // lookup AC35 for S=C(NCc1ccco1)Nc1ccc(Oc2ccc(Cl)cc2)cc1
### Response 16.8 µM

### Prompt For O=C1Nc2c(Br)cccc2C1=O then?
### Response 30.5 µM

----------
A collection of compounds and their measured AC35
# Tested on: P. falciparum HB3 in RBCs, SYBR Green DNA fluorescence
# experimentDescription: growth inhibition of P. falciparum HB3, dose response, HB3 strain, red blood cells, SYBR Green, cherry-picked (AID 652041);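 note: parasites exposed to compound for 72 hours before the DNA read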

CC(C)(C)C(O)C(Cc1ccccc1Cl)n1cncn1 (centres undefined)	39.3 µM

### Prompt Find the recorded AC35 belonging to Nc1cc2nc3ccccc3oc-2cc1=O and report it.
### Response 1.01 µM

### Prompt Similarly, CC(C)(C)n1nc(Cc2cccc3ccccc23)c2c(N)ncnc21 ?
### Response 23.6 µM

### Prompt Entry Cc1csc(NC(=O)C(C)Oc2ccc(Cl)cc2C)n1 (centres undefined) please
### Response 23 µM

----------
Item-by-item account of AC35
# Test system: P. falciparum HB3 in RBCs, SYBR Green DNA fluorescence
# experimentDescription: growth inhibition of P. falciparum HB3, dose response, HB3 strain, red blood cells, SYBR Green, cherry-picked (AID 652041);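 note: parasites exposed to compound for 72 hours before the DNA read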

Here's what some known entries look like.
CN(c1ccccc1)c1nc(N2CCCC2)nc(-n2ccnc2)n1	11.1 µM
O=[N+]([O-])c1cccc(C=NNc2ccc3ccccc3n2)c1O	6.73 µM
CCn1c(CNc2ccc(Cl)cc2)nnc1SCc1ccc(Cl)cc1	38.6 µM

### Prompt # AC35 lookup, item CC(C)(C)C(=O)C(Oc1ccc(Cl)cc1)n1cncn1 (stereo unspecified)
### Response 36.1 µM

### Prompt Continue with COc1cc(NS(=O)(=O)c2ccc(C)cc2)c2ncccc2c1
### Response 6.38 µM

### Prompt Same again, this time with CCN1C(=O)C(CC(=O)Nc2ccccc2Cl)N(NC(=O)c2cccc(F)c2)C1=S (stereo unspecified)
### Response 21.8 µM

### Prompt What do you get for CC(/C=N/n1c(COc2ccccc2)n[nH]c1=S)=C\c1ccccc1 ?
### Response 42.2 µM

### Prompt Then CNc1ccc2oc(C[C@H]3O[C@@]4(CC[C@H]3C)O[C@H]([C@H](C)C(=O)c3ccc[nH]3)[C@H](C)C[C@H]4C)nc2c1C(=O)O ?
### Response 0.833 µM

### Prompt // next record COc1ccc(-c2oc3ccccc3c2C#Cc2cncn2C)cc1
### Response 0.87 µM

### Prompt Entry to check: Cc1ccc(Cl)cc1NC1=C/C(=N\S(=O)(=O)c2cccs2)c2ccccc2C1=O
### Response 0.119 µM

### Prompt Same for O/N=C/c1cc(Br)ccc1OCc1ccccc1F
### Response 29.2 µM

### Prompt Please give the result for CC1CCN(c2nc(-c3ccncc3)nc3ccccc23)CC1 too.
### Response 8.17 µM

### Prompt CCOC(=O)c1ccc(NC(=S)N(Cc2cccnc2)Cc2ccco2)cc1 , same question.
### Response 28.1 µM

### Prompt How about this compound: O=S(=O)(Nc1ccccc1)c1ccc(Oc2ncc(C(F)(F)F)cc2Cl)cc1
### Response 25.1 µM

### Prompt Record: COC(=O)c1cccc2c1-c1ccccc1/C2=N/O
### Response 16.5 µM

### Prompt Try the compound CC(C)N1CCN(c2ccc(OC[C@H]3CO[C@](Cn4cncn4)(c4ccc(Cl)cc4Cl)O3)cc2)CC1
### Response 7.37 µM

Values compiled from PubChem BioAssay AID652041.
